tested on: UACC-257 melanoma; experiment: NCI tumour cell line growth inhibition, 48 h

compound	TGI
COc1ccc(/C=C/C(=O)c2ccc(Nc3ncnc4ccccc34)cc2)cc1OC	> 100 µM
CC(=O)NNC=N/C(C#N)=C(\N)C#N	> 100 µM
CC(=O)Nc1ccc(-c2nnc(SCC(=O)Nc3ccccc3Cl)o2)cc1	> 100 µM
N#Cc1c(NC(=O)c2cccs2)[n+]([O-])c2ccccc2[n+]1[O-]	> 100 µM
CCN(CC)CCCCC1CCN(CC(=O)N2c3ccccc3NC(=O)c3ccccc32)CC1	> 100 µM
COC(=O)Nc1ccc2ccc3c(NC(=O)OC)ccc4ccc1c2c43 (tested in a mixture with another compound)	> 50 µM
COC(=O)n1c(=O)nc2c3c(ncn21)Oc1c(c(-c2ccccc2)nn1-c1ccccc1)C3c1ccc(Cl)cc1 (centres undefined)	3.76 µM
O=C(O)CC(Cc1ccc2c(c1)OCO2)C(=O)O (centres undefined)	> 100 µM
O=C(Oc1ccccc1)c1cc(O)c(O)c(O)c1	> 100 µM
C/C(=N\NC(=S)N(C)C)c1ncc[nH]1	7.52 µM
Nc1cc(N)c2nc(-c3ccccc3)c(Nc3ccc(F)cc3)nc2c1	29 µM
CC1CCCc2c(-c3ccc(Cl)cc3)nc(N)c(C#N)c21 (centres undefined)	61.5 µM
C[N+](C)(C)CC1Cc2ccccc2C1=O (centres undefined)	> 10 µM
CCOP(=O)(CS(C)=O)O[C@@H]1C[C@H](C)CC[C@H]1C(C)C (some centres undefined)	18.7 µM
O=C1C(NCCO)=C(N2CC2)C(=O)C(NCCO)=C1N1CC1	> 100 µM
COc1ccc(C2=NNC(c3ccc(-c4ccc(OC)cc4[N+](=O)[O-])o3)C2)cc1 (centres undefined)	> 100 µM
CCCCCC(=O)N1c2ccccc2NC2=C(C(=O)CC(c3ccc(OC)c(OC)c3)C2)C1c1ccc(C(F)(F)F)cc1 (centres undefined)	> 100 µM
O=C1N=C2c3c(sc4c3CCCC4)N=CN2C1N=Nc1ccc(Cl)cc1 (centres undefined)	> 100 µM
O=c1c2cc(I)ccc2nc(-c2cccs2)n1Nc1ccccc1	> 100 µM

====

system: MDA-N; test: NCI tumour cell line growth inhibition, 48 h
Some compounds, each annotated with its measured TGI.
readout.label: TGI

compound	observed.result
O=C(/C=C/c1ccc(O)c(O)c1)NC(CO)C(=O)O (stereo not given)	> 100 µM
CC(=O)Nc1c(C)cc(OCC(=O)O)cc1C	> 100 µM
CC(C#N)Nc1ccc(Oc2ccc(C(C)(C)c3ccc(Oc4ccc(NC(C)C#N)cc4)cc3)cc2)cc1 (stereo not given)	> 100 µM
CC1(C)OC2C(CO)OC(n3ccc(=O)[nH]c3=O)C2O1 (stereo not given)	> 100 µM
Cn1c(=O)nc2n(CCO)c(-c3ccccc3)c(-c3ccccc3)nc-2c1=O	> 100 µM
CC1=NC(=Cc2ccc(Cl)cc2)C(=O)N1n1c(-c2ccccc2)nc2ccccc2c1=O	> 100 µM
CC1(C)CCSC(/C=C/c2ccccc2)=N1	24.8 µM
CCOC(=O)C1CCC/C1=N\N=C(N)N (stereo not given) (tested in a mixture with another compound)	> 100 µM
Cc1c(CCN=P(c2ccccc2)(c2ccccc2)c2ccccc2)c(=O)n2c([nH]c3ccccc32)c1C#N	> 10 µM
Nc1ncc2c(n1)-c1ccccc1OC2NC1CC1 (stereo not given)	> 100 µM
COC(=O)/C=C/c1cc(OC)c2c(c1)C(C(=O)OC)C(c1ccc(OC)c(OC)c1)O2 (stereo not given)	> 100 µM
N#Cc1c(-c2ccccc2)c(C#N)c(=O)n(NS(=O)(=O)c2ccccc2)c1O	> 100 µM
CCOP(=O)(CS(C)=O)O[C@@H]1C[C@H](C)CC[C@H]1C(C)C (stereo not given in full)	8.97 µM
CCOC(=O)CNC(=O)C(CSC(=O)N(O)c1ccc(Br)cc1)NC(=O)CCC(N)C(=O)OCC (stereo not given)	> 50 µM
C1CSCC2(COC2)CS1	> 100 µM
